compounds and their reported Cp(f)
Test system: Plasma
Assay: Unbound plasma concentration in CD-1 mouse at 3 mg/kg, iv and 10 mg/kg, po measured at 1 hr
Type: ADME, organism-based
Details: in vivo

# Compound, Cp(f) (nM)
records = [
    ("CN1C(=O)[C@]2(N=C1N)c1cc(-c3cncc(Cl)c3)ccc1O[C@H]1CCOC[C@@H]12 (racemic)", 26),
    ("CN1C(=O)[C@]2(N=C1N)c1cc(-c3cccnc3F)ccc1O[C@H]1CCOC[C@@H]12 (racemic)", 320),
    ("C[C@]12CCOC[C@@H]1[C@]1(COC(N)=N1)c1cc(-c3cncc(Cl)c3)ccc1O2 (racemic)", 220),
    ("CN1C(=O)[C@]2(N=C1N)c1cc(-c3cc(F)cc(Cl)c3)ccc1O[C@H]1CCOC[C@@H]12 (racemic)", 8.7),
    ("CN1C(=O)[C@]2(N=C1N)c1cc(-c3cccc(C#N)c3)ccc1O[C@H]1CCOC[C@@H]12 (racemic)", 210),
    ("C[C@H]1OCC[C@H]2Oc3ccc(-c4cccnc4F)cc3[C@]3(N=C(N)N(C)C3=O)[C@H]12 (racemic)", 260),
]
